Just for reference, patent US20260209325A1 is where these values come from.

Biological target: T1, cyno pro-myostatin (cynomolgus monkey, Biotinylated for capture in the SPR assay (site not stated). The native form is a disulfide-linked homodimer, partly furin-cleaved; one chain is given.)
T1 construct: also called proGDF8 (cynomolgus); cynomolgus monkey pro-myostatin
Test: SPR Biacore 8K, biotin-antigen captured
# reported kon; entries follow
Write the value in M⁻¹ s⁻¹ as a bare number.

| BINDER | NUMBER |
| --- | --- |
| Ab104 (antibody, human IgG4 S228P, kappa, V domains shown) VH: EVQLVESGGGLVQPGGSLRLSCAASGSAFSSYGMSWVRQAPGKGLELVASINSNGGSTYYPDSVKGRFTISRDNAKNSLYLQMNSLRAEDTAVYYCARDLLVKFLSWSHYYGMDVWGQGTTVTVSS VL: DIVMTQSPLSLPVTPGEPASISCRSSQSLLHSSGHNFLHWYLQKPGQSPQLLIYEVSNRVSGVPDRFSGSGSGTDFTLKISRVEAEDVGVYYCMQQTQYPPTFGGGTKVEIKR | 4.21e+06 |

Moving on to the next binder.
Item: Ab128 (antibody, human IgG4 S228P, kappa, V domains shown) VH: EVQLVESGGGLVQPGGSLRLSCTASGFTLSSYSMDWVRQAPGKGLEWVSYITGSGDTTYYADSVKGRFTISRDNAKNTLYLQMNSLRAEDTAVYYCARGFGWISGWAEDYFDYWGQGTLVTVSS VL: DIQMTQSPSSLSASVGDRVTITCQASQSVYSYLNWYQQKPGKAPKLLIYGASRLEGGVPSRFSGSGSGTDFTFTISSLQPEDIATYYCQQHSTDQRTFGGGTKVEIKR | kon: 905000
